- target desc: RORγ-LBD (Homo sapiens, UniProt P51449)
- Sequence (P51449 269-508 limits assumed): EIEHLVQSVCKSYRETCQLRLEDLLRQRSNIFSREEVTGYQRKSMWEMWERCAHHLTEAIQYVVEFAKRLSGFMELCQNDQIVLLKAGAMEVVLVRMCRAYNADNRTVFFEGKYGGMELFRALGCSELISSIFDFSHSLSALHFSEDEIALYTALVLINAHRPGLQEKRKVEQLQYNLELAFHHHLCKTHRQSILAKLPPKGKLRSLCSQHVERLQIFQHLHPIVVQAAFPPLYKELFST
- test: RORγ-Ligand Binding Domain (LBD) TR-FRET Assay
Field: EC50. Provide a value for each of the compounds that follow.

Field EC50 (entry O=C(O)[C@H]1C[C@H]([C@H]2CN(S(=O)(=O)c3cccc(C(F)(F)F)c3)c3cc(-c4cccc(C(F)(F)F)n4)ccc3O2)C1 ) reads < 500 nM

The compound identified as Cn1cc(C(=O)NC[C@H]2CN(S(=O)(=O)c3cccc(C(F)(F)F)c3)c3cc(-c4cc(F)ccc4F)ccc3O2)cn1 [Compound 30AH] registered its EC50 at < 500 nM

Measured EC50 of O=C(O)[C@H]1C[C@@H]([C@H]2CN(S(=O)(=O)c3cccc(C(F)(F)F)c3)c3cc(-c4cc(F)ccc4F)ccc3O2)C1 [Compound 60H] : < 500 nM
